experimentalSystem: recombinant KPC-2 (Klebsiella pneumoniae, UniProt Q9F663)
Construct: made in house; host or cells: E. coli BL21 (DE3)
Sequence (Q9F663 25-293, looked up): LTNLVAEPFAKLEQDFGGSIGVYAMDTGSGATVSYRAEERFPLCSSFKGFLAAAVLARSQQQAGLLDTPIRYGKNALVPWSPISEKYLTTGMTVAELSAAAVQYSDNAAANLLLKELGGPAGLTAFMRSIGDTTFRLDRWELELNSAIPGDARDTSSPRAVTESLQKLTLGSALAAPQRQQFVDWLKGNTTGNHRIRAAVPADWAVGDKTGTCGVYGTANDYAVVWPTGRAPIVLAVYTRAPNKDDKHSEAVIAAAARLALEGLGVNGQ
procedureText: KPC-2 inhibition assay, CENTA as reporter substrate
Type: biochemical
Method: The blaKPC-2 gene was kindly provided by Prof. Sergei Vakulenko (University of Notre Dame du Lac, Indiana, USA) and cloned as already reported and transformed into competent E.coli BL21 (DE3) cells for protein expression. […] 4 mL of the overnight culture was used to inoculate 1.3 L of TSB (50 mg/L kanamycin) grown at 37°C with shaking to an optical density of 0.5 measured at 600 nm. […] Competitive inhibition mechanism and the Ki for compound 9a was determined by Lineweaver–Burk (LB) and Dixon plots.
metric: IC50

## Task Which IC50 is listed for Cn1c(=O)c2n[nH]c(=O)nc2n(C)c1=O [14a] ?
## Result > 1000 µM

* * *

experimentalSystem: recombinant KPC-2 (Klebsiella pneumoniae, UniProt Q9F663)
Construct: made in house; host or cells: E. coli BL21 (DE3)
procedureText: KPC-2 inhibition assay, nitrocefin as reporter substrate
Assay type: biochemical
measurementConditions: nitrocefin 114.28 μM (Km 36 μM), 25°, 485 nm
Protocol: The blaKPC-2 gene was kindly provided by Prof. Sergei Vakulenko (University of Notre Dame du Lac, Indiana, USA) and cloned as already reported and transformed into competent E.coli BL21 (DE3) cells for protein expression. […] 4 mL of the overnight culture was used to inoculate 1.3 L of TSB (50 mg/L kanamycin) grown at 37°C with shaking to an optical density of 0.5 measured at 600 nm. […] Kinetic were monitored at 25° by following the absorbance variation at λ = 485 nm. ^[b] […]
pIC50: −log10 of the molar value.
What pIC50 was measured for each of the following?

## Task Which pIC50 is listed for "O=S(=O)(Nc1cccc(-c2nnn[nH]2)c1)c1cccc(F)c1" ?
## Result < 3.70

## Task Which pIC50 is listed for Cc1nc2cc(S(=O)(=O)Nc3cccc(-c4nnn[nH]4)c3)ccc2n1-c1ccccc1 [11b] ?
## Result < 3.00

## Task Which pIC50 is listed for "O=S(=O)(/C=C/c1cccc(Br)c1)Nc1cccc(-c2nnn[nH]2)c1" ?
## Result < 3.00

## Task Which pIC50 is listed for O=S(=O)(Nc1cccc(-c2nnn[nH]2)c1)c1ccc(C(F)(F)F)cc1 [14b] ?
## Result < 3.30

## Task Which pIC50 is listed for "O=S(=O)(Nc1cccc(-c2nnn[nH]2)c1)c1cccc2cccnc12" ?
## Result < 3.70

* * *

experimentalSystem: recombinant KPC-2 (Klebsiella pneumoniae)
Construct: made in house; host or cells: E. coli BL21 (DE3)
procedureText: KPC-2 inhibition assay, CENTA as reporter substrate
Format: biochemical
measurementConditions: CENTA 100 μM (km 70 μM), 25°, 405 nm, no pre-incubation; read-out: IC50
metric: IC50

## Task Which IC50 is listed for CS(=O)(=O)Nc1ccc2oc(=O)sc2c1 [31a] ?
## Result > 1000 µM

## Task Which IC50 is listed for CC(=O)Nc1cccc(-c2nnn[nH]2)c1 [8a] ?
## Result > 500 µM

## Task Which IC50 is listed for Cc1nn(CC(=O)O)c2nccc(-c3cnn(C)c3)c12 [26a] ?
## Result > 830 µM

## Task Which IC50 is listed for Cc1c(-c2cc(C(=O)O)no2)cnn1C [3a] ?
## Result > 250 µM

## Task Which IC50 is listed for COc1ccc(-c2cn[nH]c2C(=O)O)c(OC)c1 [2a] ?
## Result > 500 µM

## Task Which IC50 is listed for COc1ccc2nc(C(=O)O)[nH]c2c1 [19a] ?
## Result 880 µM

## Task Which IC50 is listed for Cc1nn(CC(=O)O)c(C)c1NS(=O)(=O)CC(F)(F)F [29a] ?
## Result > 1000 µM

## Task Which IC50 is listed for Cc1nn(CC(=O)O)c2[nH]c(=O)cc(C(F)F)c12 [16a] ?
## Result > 1000 µM

## Task Which IC50 is listed for COCc1nc2cc(NS(C)(=O)=O)ccc2o1 [21a] ?
## Result > 1000 µM

## Task Which IC50 is listed for O=C(NCc1nnnn1-c1ccccc1)c1cccnc1O [25a] ?
## Result > 400 µM

## Task Which IC50 is listed for COc1ccc(NS(C)(=O)=O)cc1 [5a] ?
## Result > 500 µM

## Task Which IC50 is listed for CC(C)S(=O)(=O)Nc1ccc2c(c1)C(=O)N(C)CCO2 [15a] ?
## Result > 660 µM

## Task Which IC50 is listed for O=C(NC1CC1)c1ccc(-c2nnn[nH]2)cc1 [18a] ?
## Result > 1000 µM

## Task Which IC50 is listed for COc1cc(OC)c2cc(C(=O)O)nnc2c1 [28a] ?
## Result > 500 µM

## Task Which IC50 is listed for CS(=O)(=O)Nc1ccc(C(N)=O)cc1 [6a] ?
## Result > 1000 µM

## Task Which IC50 is listed for COc1ccc2[nH]nc(C(=O)O)c2c1 [1a] ?
## Result > 330 µM

## Task Which IC50 is listed for Cn1cc(-c2cc(C(=O)O)no2)cn1 [4a] ?
## Result > 250 µM

## Task Which IC50 is listed for CCOc1ccc(NS(C)(=O)=O)cc1 [7a] ?
## Result > 1000 µM

## Task Which IC50 is listed for Cc1n[nH]c(C)c1/C=C/c1cc(C(=O)O)ncn1 [24a] ?
## Result > 100 µM

## Task Which IC50 is listed for O=c1ccc(O)nn1-c1nnn[nH]1 [17a] ?
## Result > 1000 µM
